Every entry's value here was drawn from PubChem BioAssay AID2610.

# System: BJeLR fibroblast viability, Alamar Blue fluorescence, 48 h
# test name: BJeLR fibroblast growth inhibition, viability readout – cell-based, alamar blue fluorescence, 48 h, cherrypicked samples, dose response (AID 2610);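 also: BJ fibroblasts with hTERT plus SV40 large and small T and HRAS V12; EC50 for loss of viable cells so potency reflects cytotoxic compounds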
Inconclusive results are not listed. The source made the active and inactive calls.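 The calls were made as follows: active = EC50 no more than tenfold above the top concentration tested, with valid fit and all samples agreeing; inconclusive = flat fit at 30 to 70% inhibition, poor fit, or split samples; inactive = EC50 beyond tenfold the top concentration tested.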
Would you mind answering with one of these outcomes? yes for active, no for inactive

Exam item: Please let me know the test result on file for CC1CCCCC1N(C)C1CCN(C(=O)CNC(=O)/C=C/c2cccc(Cl)c2)CC1 (stereo unspecified) .
Marked response: yes

Exam item: Please indicate how the test categorized `N=c1c2c(-c3ccccc3)c(-c3ccccc3)n(Cc3ccco3)c2ncn1CCCn1ccnc1` .
Marked response: yes

Exam item: What was the test verdict on `COc1ccc(C2=CC(=O)C=CC2=O)cc1` ?
Marked response: no

Exam item: Per the records of this test, what outcome belongs to `CCOc1ccc(OCc2cccc(C(=O)O)c2)cc1` ?
Marked response: no

Exam item: Test call, this compound: `Cc1occc1C(=O)N/N=C/c1ccc2c(c1)OCO2`
Marked response: no

Exam item: How was `Cc1ccc(C(=O)c2cc([N+](=O)[O-])ccc2N2CCCCC2)c(C)c1` classified in this test?
Marked response: yes

----------
# System: BJeLR fibroblast viability, Alamar Blue fluorescence, 48 h
# test name: BJeLR fibroblast growth inhibition, viability readout – cell-based, alamar blue fluorescence, 48 h, cherrypicked samples, dose response (AID 2610)
Records with an inconclusive call do not appear. Activity calls are given as the source filed them.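 The calls were made as follows: active = EC50 no more than tenfold above the top concentration tested, with valid fit and all samples agreeing; inconclusive = flat fit at 30 to 70% inhibition, poor fit, or split samples; inactive = EC50 beyond tenfold the top concentration tested.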
Write down one outcome, taken from active, inactive

Use the examples below as a reference point.
compound	class label
Cc1cc(-n2c(SCC(=O)NCCC3=CCCCC3)nc3n[nH]c(C)c3c2=N)ccc1Cl	inactive
Oc1ccc(/C=N/Nc2nccnc2Cl)c(O)c1	active
O=C(c1cccs1)c1no[n+]([O-])c1C(=O)c1cccs1	active
Cn1cnc(Sc2ncnc3nc[nH]c23)c1[N+](=O)[O-]	inactive

Exam item: Tell me the assay call for `N#CC(C#N)=NNc1ccc(-n2ccc(C(F)(F)F)n2)cc1` please.
Marked response: active

Exam item: Answer briefly: the call reported for `CCOc1ccc(C(=O)c2cc([N+](=O)[O-])ccc2N2CCOCC2)cc1` in this assay.
Marked response: active

Exam item: What was the test verdict on `O=C(NCCOc1cccnc1)c1ccc(OC2CCN(Cc3ccccn3)CC2)cc1` ?
Marked response: active

----------
# Test system: BJeLR fibroblast viability, Alamar Blue fluorescence, 48 h
# test name: BJeLR fibroblast growth inhibition, viability readout – cell-based, alamar blue fluorescence, 48 h, cherrypicked samples, dose response (AID 2610)
Inconclusive results are not listed. Active and inactive are the calls of the source.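 Rule for the calls: active = EC50 no more than tenfold above the top concentration tested, with valid fit and all samples agreeing; inconclusive = flat fit at 30 to 70% inhibition, poor fit, or split samples; inactive = EC50 beyond tenfold the top concentration tested.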
Permitted responses: yes (active), no (inactive)

smiles input	measurement target	class label
O=C1c2cccc3cc([N+](=O)[O-])cc(c23)C(=O)N1CCN1CCCC1	BJeLR fibroblast viability, Alamar Blue fluorescence, 48 h	yes
COc1cccc(NC(=O)n2ncc3c(C)cccc32)c1	BJeLR fibroblast viability, Alamar Blue fluorescence, 48 h	no
COc1ccc2nc(C)cc(N/N=C/c3ccc(F)cc3)c2c1	BJeLR fibroblast viability, Alamar Blue fluorescence, 48 h	yes
O=C(N/N=C(\c1ccccc1)c1cccnc1)c1cccc(F)c1	BJeLR fibroblast viability, Alamar Blue fluorescence, 48 h	yes

Exam item: Please share the test call associated with `O=C(N/N=C/c1cccs1)c1cc(-c2ccncc2)nc2ccccc12` .
Marked response: yes

Exam item: Recorded test call requested for `c1cnc2c(c1)ccc1cccnc12`
Marked response: yes

----------
# Tested on: BJeLR fibroblast viability, Alamar Blue fluorescence, 48 h
# test name: BJeLR fibroblast growth inhibition, viability readout – cell-based, alamar blue fluorescence, 48 h, cherrypicked samples, dose response (AID 2610)
Inconclusive results are not listed. The source made the active and inactive calls.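 Rule for the calls: active = EC50 no more than tenfold above the top concentration tested, with valid fit and all samples agreeing; inconclusive = flat fit at 30 to 70% inhibition, poor fit, or split samples; inactive = EC50 beyond tenfold the top concentration tested.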
Give your call using only these classes: active, inactive

compound	class label
CCCN1C=CC(=C2C(=O)c3ccccc3C2=O)C=C1	inactive

Exam item: Check the results log: what was the call for `CCc1nc(N)nc(N)c1-c1ccc(Cl)cc1` ?
Marked response: inactive

Exam item: Please state the recorded outcome for this compound: `COc1ccc(CCNc2nnc(Sc3nnnn3-c3ccccc3)s2)cc1OC`
Marked response: active

Exam item: Which outcome was entered for the compound O=C1SC(Cc2ccccc2)C(=O)N1c1ccccc1 (stereo unspecified) in this test?
Marked response: active

Exam item: Assay result, entry `Cc1ccc(N2C(=O)c3cccc4c([N+](=O)[O-])ccc(c34)C2=O)c2cccnc12` — outcome?
Marked response: active

Exam item: Tell me the assay call for `CCOc1ccccc1C(=O)N1CCN(c2cccc(Cl)c2)CC1` please.
Marked response: active

----------
# Tested on: BJeLR fibroblast viability, Alamar Blue fluorescence, 48 h
# test name: BJeLR fibroblast growth inhibition, viability readout – cell-based, alamar blue fluorescence, 48 h, cherrypicked samples, dose response (AID 2610);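 also: BJ fibroblasts with hTERT plus SV40 large and small T and HRAS V12; EC50 for loss of viable cells so potency reflects cytotoxic compounds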
Inconclusive results are not listed.
measured quantity: EC50

Let me check: `Cc1ccccc1Nc1nc(N)nc(CCl)n1` , system BJeLR fibroblast viability, Alamar Blue fluorescence, 48 h, measured EC50 is 2290 nM

----------
# Test system: BJeLR fibroblast viability, Alamar Blue fluorescence, 48 h
# test name: BJeLR fibroblast growth inhibition, viability readout – cell-based, alamar blue fluorescence, 48 h, cherrypicked samples, dose response (AID 2610);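 also: BJ fibroblasts with hTERT plus SV40 large and small T and HRAS V12; EC50 for loss of viable cells so potency reflects cytotoxic compounds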
Results filed as inconclusive are left out. Active and inactive are the calls of the source.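 How the source made its calls: active means EC50 no more than tenfold above the top concentration tested, with valid fit and all samples agreeing; inconclusive means flat fit at 30 to 70% inhibition, poor fit, or split samples; inactive means EC50 beyond tenfold the top concentration tested.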
Assign a class; possible classes are true (1) for active, false (0) for inactive

Worked examples follow.
compound	measurement target	class label
N#CC1=C(N)Oc2cc(N)ccc2C1c1cccc(Br)c1 (stereo not given)	BJeLR fibroblast viability, Alamar Blue fluorescence, 48 h	true (1)
COc1ccc(C[C@H]2NC[C@H](O)[C@H]2OC(C)=O)cc1	BJeLR fibroblast viability, Alamar Blue fluorescence, 48 h	true (1)
NS(=O)(=O)c1ccc(NC(=O)c2cc(-c3cccs3)nc3ccccc23)cc1	BJeLR fibroblast viability, Alamar Blue fluorescence, 48 h	false (0)

Exam item: Short answer needed: outcome of this test for C#CCOc1ccc(C2C3=C(COC3=O)Nc3cc4c(cc32)OCO4)cc1OC (stereo not given) ?
Marked response: true (1)

Exam item: Assay outcome for C[C@]12CCC3C(CCC4=CC(O)CC[C@@]43/C=N/O)C1(O)CCC2C1=CC(=O)OC1 (stereo not given in full) : what was it?
Marked response: true (1)

Exam item: Record request — test call for `Nc1ncnc2c1ccn2[C@@H]1O[C@H](CO)[C@@H](O)[C@H]1O`
Marked response: true (1)

Exam item: State the result this test recorded for `CCN(CC)c1ccc(/C=N/NC(=O)c2nnn(-c3nonc3N)c2C(C)C)c(O)c1` .
Marked response: true (1)

Exam item: For this compound, state the assay outcome: `CCCC(=O)Nc1ccc(C(=O)N/N=C/c2ccc([N+](=O)[O-])o2)cc1`
Marked response: true (1)

Exam item: What did the test return for `C(=N\Nc1nc2ccccc2[nH]1)/c1ccc2ncccc2c1` ?
Marked response: false (0)

Exam item: How did this test come out for `CSc1ccc(COC(=O)c2cc([N+](=O)[O-])ccc2N2CCOCC2)cc1` ?
Marked response: true (1)

Exam item: Lab log entry: `O=C(/C=C/c1ccco1)Nc1ccc(Oc2ccccc2)cc1` — outcome as called in the assay?
Marked response: false (0)

Exam item: What outcome does the record of this test show for `Cc1cccnc1Nc1nc(-c2ccccn2)cs1` ?
Marked response: true (1)

----------
# Tested on: BJeLR fibroblast viability, Alamar Blue fluorescence, 48 h
# test name: BJeLR fibroblast growth inhibition, viability readout – cell-based, alamar blue fluorescence, 48 h, cherrypicked samples, dose response (AID 2610);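 also: BJ fibroblasts with hTERT plus SV40 large and small T and HRAS V12; EC50 for loss of viable cells so potency reflects cytotoxic compounds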
Records with an inconclusive call do not appear. Active and inactive are the calls of the source.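 How the source made its calls: active means EC50 no more than tenfold above the top concentration tested, with valid fit and all samples agreeing; inconclusive means flat fit at 30 to 70% inhibition, poor fit, or split samples; inactive means EC50 beyond tenfold the top concentration tested.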
Give your call using only these classes: active, inactive

Previously resolved entries follow.
molecule	class label
CCOC(=O)c1[nH]c(C)c(C(=O)N2CCc3ccccc32)c1C	active
CCCCC(=O)NC(c1ccc(C(C)C)cc1)c1ccc2cccnc2c1O (stereo unspecified)	active
COc1ccc(S(=O)(=O)N2c3cc(Cl)ccc3Oc3nc4ccccc4nc32)cc1	active
CCN1/C(=C/C(C)=C/c2sc3ccccc3[n+]2CC)Sc2ccccc21	active
O=C(CCl)N=c1sccn1Cc1ccccc1Cl	active
COC(=O)C[C@]1(C(=O)OC)CN(C#N)N(c2ccc(Cl)cc2)C12c1ccccc1-c1ccccc12	active
CCN1/C(=C\C=C\C2=[N+](CC)c3ccccc3C2(C)C)C(C)(C)c2ccccc21	active
CCc1ccc(CCC(=O)Nc2ncc(Cc3ccccc3Cl)s2)o1	active
O=C(/C=C/c1ccc([N+](=O)[O-])o1)NNC(=O)c1ccc(F)cc1	active
CCC1=Nc2cc(C(=O)NCc3ccco3)ccc2Sc2ccc(C)cc21	active

Exam item: Which result was noted for this molecule in the test: `CC(C)(C)c1ccc(C(=O)Nc2ccc(C(=O)NCc3cccnc3)cc2)cc1`
Marked response: active

Exam item: Write down the call the test reported for this molecule. Item: `C[C@@H]1C=CC(=O)O[C@@H]1c1ccc(Cl)cc1`
Marked response: active

Exam item: Assay result, entry `O=Cc1cc2ccccc2nc1SCc1ccc(Cl)c(Cl)c1` — outcome?
Marked response: active

Exam item: Hello, I am checking results. What call was entered for `CCCCCN=Cc1c(C)[nH]n(-c2nc3ccccc3s2)c1=O` ?
Marked response: inactive

Exam item: Hi, sorry to bother you, what did the test record for COc1ccc(N(C(=O)CCl)C(C(=O)NCCc2ccccc2)c2cccs2)cc1Cl (stereo unspecified) ?
Marked response: active

Exam item: Assay outcome for `CCN1/C(=C/c2ccc3ccccc3[n+]2CC)C=Cc2ccccc21` : what was it?
Marked response: active
